Ref: patent US9969726B2

Tested System: rat mGlu2 receptor (Rattus norvegicus (Rat), UniProt P31421)
Sequence (P31421 19-872): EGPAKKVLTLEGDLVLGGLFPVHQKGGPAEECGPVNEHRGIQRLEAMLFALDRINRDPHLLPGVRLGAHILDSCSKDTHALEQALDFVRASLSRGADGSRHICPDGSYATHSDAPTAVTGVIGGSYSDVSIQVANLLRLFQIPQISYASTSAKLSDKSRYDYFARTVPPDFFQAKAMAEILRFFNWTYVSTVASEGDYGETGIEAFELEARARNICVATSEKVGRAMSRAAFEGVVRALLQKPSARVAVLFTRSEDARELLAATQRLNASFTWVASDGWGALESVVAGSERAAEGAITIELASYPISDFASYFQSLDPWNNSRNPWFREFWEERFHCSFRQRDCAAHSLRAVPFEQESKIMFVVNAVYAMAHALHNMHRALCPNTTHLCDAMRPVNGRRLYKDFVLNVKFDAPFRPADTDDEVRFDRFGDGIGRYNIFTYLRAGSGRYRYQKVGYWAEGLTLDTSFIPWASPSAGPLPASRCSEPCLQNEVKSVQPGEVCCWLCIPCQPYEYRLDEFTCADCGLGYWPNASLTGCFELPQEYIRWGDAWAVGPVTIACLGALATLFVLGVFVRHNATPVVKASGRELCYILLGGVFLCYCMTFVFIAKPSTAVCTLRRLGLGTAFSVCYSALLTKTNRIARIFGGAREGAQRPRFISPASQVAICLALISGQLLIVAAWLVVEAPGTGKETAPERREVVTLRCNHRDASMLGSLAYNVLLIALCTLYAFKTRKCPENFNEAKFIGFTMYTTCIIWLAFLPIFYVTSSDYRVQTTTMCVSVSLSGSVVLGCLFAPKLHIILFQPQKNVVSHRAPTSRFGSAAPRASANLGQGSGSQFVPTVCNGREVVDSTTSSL
Assay Details: mGlu2 in vitro GIRK thallium flux assay
Format: cell-based
Condition Details: NAM; 2.5 min compound incubation; EC80 glutamate; HEK-293 GIRK cells; read-out: mGlu2 EC50 (μM) (2.5 min)
// boundary case: EC50 equal to 1 µM maps to false; strictly smaller maps to true

In the record for `Cc1cc(C)cc(-c2cc(C(F)(F)F)nc(-c3cccc(-c4ccc(F)c(C(=O)O)c4)c3)n2)c1` , is EC50 less than 1 µM?
false

In the record for `O=C(O)c1cc(F)cc(-c2cccc(-c3nc(-c4ccco4)cc(C(F)(F)F)n3)c2)c1` , is EC50 less than 1 µM?
false

In the record for `O=C(O)c1cc(-c2cccc(-c3nc(-c4sccc4Cl)cc(C(F)(F)F)n3)c2)ccc1F` , is EC50 less than 1 µM?
false

In the record for `O=C(O)c1cc(-c2cccc(-c3nc(-c4ccc(C(F)(F)F)nc4)cc(C(F)(F)F)n3)c2)ccc1F` , is EC50 less than 1 µM?
true

In the record for `O=C(O)c1ccc(-c2cccc(-c3nc(-c4ccc(C(F)(F)F)nc4)cc(C(F)(F)F)n3)c2)cc1` , is EC50 less than 1 µM?
false

In the record for `Cn1nc(-c2cccc(-c3cccc(C(=O)O)c3)c2)nc1-c1ccccc1` , is EC50 less than 1 µM?
true

In the record for `O=C1CC(c2ccnc(Cl)c2)=Nc2ccc(-c3cc(F)cc(F)c3)cc2N1` , is EC50 less than 1 µM?
false

In the record for `O=C(O)c1ccc(-c2cccc(-c3nc(-c4ccc(C(F)(F)F)nc4)cc(C(F)(F)F)n3)c2)s1` , is EC50 less than 1 µM?
true

In the record for `O=C(O)c1cc(-c2cccc(-c3nc(-c4ccc(C(F)(F)F)nc4)cc(C(F)(F)F)n3)c2)ccc1Cl` , is EC50 less than 1 µM?
false

In the record for `c1ccc(-c2nc(-c3cccc(-c4cccc(-c5nn[nH]n5)c4)c3)cs2)cc1` , is EC50 less than 1 µM?
false

In the record for `O=C(O)c1cc(F)cc(-c2cccc(-c3nc(-c4ccc(C(F)(F)F)nc4)cc(C(F)(F)F)n3)c2)c1` , is EC50 less than 1 µM?
false

In the record for `COc1ccc(-c2nc(-c3cccc(-c4cccc(C(=O)O)c4)c3)cs2)cc1` , is EC50 less than 1 µM?
false

In the record for `O=C(O)c1cc(-c2cccc(-c3csc(-c4ccccc4)n3)c2)cc([N+](=O)[O-])c1` , is EC50 less than 1 µM?
false

In the record for `O=C(O)c1cc(-c2cccc(-c3nc(-c4ccc(Cl)cc4)cc(C(F)(F)F)n3)c2)ccc1F` , is EC50 less than 1 µM?
false

In the record for Cc1cc2c(cc1C(F)(F)F)NC(=O)CC(c1cccc(Oc3ncccn3)c1)N2 (racemic) , is EC50 less than 1 µM?
false

In the record for `O=C(O)c1cc(-c2cccc(-c3nc(-c4nccs4)cc(C(F)(F)F)n3)c2)ccc1F` , is EC50 less than 1 µM?
false

* * *

I'd be grateful if you could share measured EC50 for these entries.
Tested System: rat mGlu3 receptor (Rattus norvegicus (Rat), UniProt P31422)
Sequence (P31422 23-879): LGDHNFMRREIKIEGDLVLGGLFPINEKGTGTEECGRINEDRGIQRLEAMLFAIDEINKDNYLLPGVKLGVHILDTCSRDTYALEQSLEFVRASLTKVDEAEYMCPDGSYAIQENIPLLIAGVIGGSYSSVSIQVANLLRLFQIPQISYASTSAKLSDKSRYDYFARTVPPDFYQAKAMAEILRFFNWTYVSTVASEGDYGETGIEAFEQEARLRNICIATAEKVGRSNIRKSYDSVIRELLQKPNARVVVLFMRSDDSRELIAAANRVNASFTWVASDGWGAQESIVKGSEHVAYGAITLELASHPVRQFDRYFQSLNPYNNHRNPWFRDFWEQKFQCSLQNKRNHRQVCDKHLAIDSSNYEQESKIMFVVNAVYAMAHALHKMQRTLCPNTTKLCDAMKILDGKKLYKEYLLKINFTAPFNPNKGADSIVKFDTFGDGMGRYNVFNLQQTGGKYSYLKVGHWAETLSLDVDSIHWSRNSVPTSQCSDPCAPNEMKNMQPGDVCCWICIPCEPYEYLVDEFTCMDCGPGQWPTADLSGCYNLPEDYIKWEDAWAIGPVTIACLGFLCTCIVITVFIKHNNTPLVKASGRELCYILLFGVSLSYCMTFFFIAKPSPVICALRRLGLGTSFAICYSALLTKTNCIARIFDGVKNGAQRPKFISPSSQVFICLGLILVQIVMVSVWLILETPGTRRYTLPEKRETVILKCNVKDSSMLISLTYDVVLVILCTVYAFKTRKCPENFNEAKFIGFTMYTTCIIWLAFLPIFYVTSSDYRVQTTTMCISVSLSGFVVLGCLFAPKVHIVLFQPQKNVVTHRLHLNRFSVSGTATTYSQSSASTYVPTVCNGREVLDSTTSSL
Assay Details: mGlu3 in vitro GIRK thallium flux assay
Format: cell-based
Condition Details: NAM; 2.5 min compound incubation; EC80 glutamate; HEK-293 GIRK cells
Form entry: value (µM) — number only.

Short answer for O=C(O)c1cc(-c2cccc(-c3nc(-c4ccoc4)cc(C(F)(F)F)n3)c2)ccc1F [Example 94] : EC50 was 0.28

Short answer for O=C(O)c1ccc(F)c(-c2cccc(-c3nc(-c4ccc(C(F)(F)F)nc4)cc(C(F)(F)F)n3)c2)c1 [Example 79] : EC50 was 0.89

Short answer for O=C(O)c1cc(-c2ccc(-c3nc(-c4ccc(C(F)(F)F)nc4)cc(C(F)(F)F)n3)cc2)ccc1F [Example 82] : EC50 was 1.32

Short answer for O=C(O)c1cc(-c2cccc(Nc3nc(-c4ccco4)cc(C(F)(F)F)n3)c2)ccc1F [Example 127] : EC50 was 3.9

Short answer for O=C1CC(c2ccnc(Br)c2)=Nc2ccc(C(F)(F)F)cc2N1 [Example 191] : EC50 was 0.18

Short answer for COc1ccc(-c2nc(-c3cccc(-c4cccc(C(=O)O)c4)c3)cs2)cc1 [Example 31] : EC50 was 3.09

Short answer for O=C(O)c1ccoc1-c1cccc(-c2nc(-c3ccccc3)n(-c3ccccc3)n2)c1 [Example 62] : EC50 was 0.21

Short answer for N#Cc1cc(C2=Nc3ccc(C#Cc4ccc(F)cc4)cc3NC(=O)C2)ccn1 [Example 185] : EC50 was 1.45

Short answer for COc1ccc(-c2ccc3c(c2)NC(=O)CC(c2ccnc(Cl)c2)=N3)cc1OC [Example 195] : EC50 was 1.39

* * *

I'd be grateful if you could share measured EC50 for these entries.
Tested System: rat mGlu2 receptor (Rattus norvegicus (Rat))
Assay Details: mGlu2 in vitro GIRK thallium flux assay
Assay type: cell-based
Condition Details: read-out: mGlu2 EC50 (μM) (60 min); NAM; 60 min compound incubation; EC80 glutamate; HEK-293 GIRK cells
Form entry: value (µM) — number only.

Short answer for `N#Cc1cc(C2=Nc3ccc(C(F)(F)F)cc3NC(=O)C2)ccn1` : EC50 was 0.07

Short answer for `O=C(O)c1cc(-c2cccc(-c3nc(-c4cc5ccccc5o4)cc(C(F)(F)F)n3)c2)ccc1F` : EC50 was 0.95

Short answer for `Fc1ccc(-c2cccc(-c3nc(-c4ccc(C(F)(F)F)nc4)cc(C(F)(F)F)n3)c2)cc1-c1nn[nH]n1` : EC50 was 1.29

* * *

Tested System: rat mGlu3 receptor (Rattus norvegicus (Rat), UniProt P31422)
Assay Details: mGlu3 in vitro GIRK thallium flux assay
Assay type: cell-based
Condition Details: NAM; 2.5 min compound incubation; EC80 glutamate; HEK-293 GIRK cells
Measured Parameter: EC50

Short answer for Cc1cc2c(cc1C(F)(F)F)NC(=O)CC(c1cccc(Oc3ccccn3)c1)N2 (racemic) [Example 165] : EC50 was 3.47 µM

Short answer for Cc1cc2c(cc1C(F)(F)F)NC(=O)CC(c1cccc(Oc3cccc(Br)c3)c1)=N2 [Example 145] : EC50 was > 10 µM

Short answer for O=C(O)c1cccc(-c2cccc(-c3nc(-c4ccccc4)n(-c4ccccc4)n3)c2)c1 [Example 49A] : EC50 was 1.36 µM

Short answer for O=C1CC(c2ccnc(Cl)c2)=Nc2ccc(-c3ccc(Br)nc3)cc2N1 [Example 199] : EC50 was 1.82 µM

Short answer for O=C(O)c1ccc(F)c(-c2cccc(-c3nc(-c4ccoc4)cc(C(F)(F)F)n3)c2)c1 [Example 114] : EC50 was 1.36 µM

Short answer for O=C1CC(c2ccnc(Cl)c2)=Nc2ccc(-c3cc(F)cc(F)c3)cc2N1 [Example 190] : EC50 was > 10 µM

Short answer for O=C(O)c1cc(-c2cccc(-c3nc(-c4ccc[nH]4)cc(C(F)(F)F)n3)c2)ccc1F [Example 106] : EC50 was 5.06 µM

Short answer for Cc1cc2c(cc1C(F)(F)F)NC(=O)CC(c1cccc(Oc3ncccn3)c1)N2 (racemic) [Example 164] : EC50 was 5.57 µM

* * *

Assay Details: PK: brain and plasma levels collected after the FST
Type: in vivo, rat
Condition Details: Wistar; rat plasma; read-out: Plasma
Protocol: After the habituation swim and 24 hours prior to the test swim, rats were administered one of three doses of a mGlu2/3 NAM, with doses and pretreatment time based on maximal brain penetration as determined by PK studies for each compound. Blood and brain tissue were collected immediately after the FST and the PK properties of each compound were analyzed together with FST behavior. […] The rater of the behavioral patterns was blind with respect to the experimental conditions being scored. […]
// boundary case: concentration at 24 h equal to 9 µM maps to rule not met; strictly smaller maps to rule met

In the record for `O=C(O)c1cccc(-c2cccc(-c3cc(-c4ccccc4)on3)c2)c1` , is concentration at 24 h less than 9 µM?
rule not met

In the record for `O=C(O)c1cc(-c2cccc(-c3nc(-c4ccoc4)cc(C(F)(F)F)n3)c2)ccc1F` , is concentration at 24 h less than 9 µM?
rule not met

In the record for `O=C1CC(c2ccnc(Br)c2)=Nc2ccc(C(F)(F)F)cc2N1` , is concentration at 24 h less than 9 µM?
rule met

In the record for `O=C(O)c1cc(F)cc(-c2cccc(-c3nsc(-c4ccoc4)n3)c2)c1` , is concentration at 24 h less than 9 µM?
rule met

In the record for `N#Cc1cc(C2=Nc3ccc(Br)cc3NC(=O)C2)ccn1` , is concentration at 24 h less than 9 µM?
rule met

* * *

Assay Details: Microsomal stability in vitro assay
Type: in vitro ADME
Condition Details: rat liver microsomes 1 mg/mL, 4 μM compound, 2 mM NADPH
I'd be grateful if you could share measured Microsomal Stability, Percent Remaining @ 1 hour for these entries.
Form entry: value (%) — number only.

Short answer for `N#Cc1cc(C2=Nc3ccc(C(F)(F)F)cc3NC(=O)C2)ccn1` : Microsomal Stability, Percent Remaining @ 1 hour was 97

Short answer for `O=C(O)c1cc(F)cc(-c2cccc(-c3nsc(-c4ccoc4)n3)c2)c1` : Microsomal Stability, Percent Remaining @ 1 hour was 66

Short answer for `COc1ccc(-c2cc(C(F)(F)F)nc(-c3cccc(-c4ccc(F)c(C(=O)O)c4)c3)n2)cc1` : Microsomal Stability, Percent Remaining @ 1 hour was 92

Short answer for `O=C(O)c1cc(F)cc(-c2cccc(-c3nc(-c4ccco4)cc(C(F)(F)F)n3)c2)c1` : Microsomal Stability, Percent Remaining @ 1 hour was 82

Short answer for `O=C(O)c1ccc(F)c(-c2cccc(-c3nc(-c4ccoc4)cc(C(F)(F)F)n3)c2)c1` : Microsomal Stability, Percent Remaining @ 1 hour was 66

Short answer for `O=C(O)c1cc(-c2cccc(-c3nsc(-c4ccccc4)n3)c2)ccc1F` : Microsomal Stability, Percent Remaining @ 1 hour was 2

Short answer for `Cc1cc2c(cc1C(F)(F)F)NC(=O)CC(c1cccc(Sc3ncccn3)c1)=N2` : Microsomal Stability, Percent Remaining @ 1 hour was 90

Short answer for `Cc1cc2c(cc1C(F)(F)F)NC(=O)CC(c1cccc(S(=O)(=O)c3ncccn3)c1)=N2` : Microsomal Stability, Percent Remaining @ 1 hour was 68

Short answer for `O=C(O)c1cc(-c2cccc(-c3csc(-c4ccccc4)n3)c2)ccc1F` : Microsomal Stability, Percent Remaining @ 1 hour was 3

Short answer for `O=C1CC(c2cccc(-c3cccnc3)c2)=Nc2ccc(Br)cc2N1` : Microsomal Stability, Percent Remaining @ 1 hour was 30

Short answer for `O=C(O)c1ccc(F)c(-c2cccc(-c3nc(-c4ccc(C(F)(F)F)nc4)cc(C(F)(F)F)n3)c2)c1` : Microsomal Stability, Percent Remaining @ 1 hour was 82

Short answer for `O=C(O)c1cc(-c2cccc(-c3nc(-c4ccsc4)cc(C(F)(F)F)n3)c2)ccc1F` : Microsomal Stability, Percent Remaining @ 1 hour was 83

Short answer for `O=C(O)c1cc(-c2cccc(-c3nc(-c4ccccc4)cc(C(F)(F)F)n3)c2)ccc1F` : Microsomal Stability, Percent Remaining @ 1 hour was 100

Short answer for `O=C(O)c1cc(F)cc(-c2cccc(-c3nc(-c4ccc(C(F)(F)F)nc4)cc(C(F)(F)F)n3)c2)c1` : Microsomal Stability, Percent Remaining @ 1 hour was 95

Short answer for `O=C(O)c1cc(F)cc(-c2cccc(-c3csc(-c4ccccc4)n3)c2)c1` : Microsomal Stability, Percent Remaining @ 1 hour was 4
